Listed next: entries and their corresponding protein stability index.
B1: USP39 (parent)
chain: FQGSMRIFTKKLPHPDLPAEEKEQ

# Variants of: B1
# experimental protocol: protein stability index of a GFP-peptide fusion (GPS, HEK-293T) (PSI 1-6); higher = more stable;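 note: lentivirally expressed fusions sorted by FACS into six bins by GFP to DsRed ratio, PSI derived from sequencing read proportions per bin multiplied by bin number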
# condition info: c terminus: a fixed tail appended
measured quantity: protein stability index

record_sequence=KQGSMRIFTKKLPHPDLPAEEKEQ measured_quantity="protein stability index" quantitative_readout=4.9
record_sequence=FQGSERIFTKKLPHPDLPAEEKEQ measured_quantity="protein stability index" quantitative_readout=2.5
record_sequence=FQGSMRIFEKKLPHPDLPAEEKEQ measured_quantity="protein stability index" quantitative_readout=3.07
record_sequence=FQGSMRIFTKKLPHPDLPAEEKEC measured_quantity="protein stability index" quantitative_readout=2.15
record_sequence=FQISMRIFTKKLPHPDLPAEEKEQ measured_quantity="protein stability index" quantitative_readout=2.07
record_sequence=FQGSMRIFTKKLPHPDLIAEEKEQ measured_quantity="protein stability index" quantitative_readout=1.7
record_sequence=FQGSMRINTKKLPHPDLPAEEKEQ measured_quantity="protein stability index" quantitative_readout=3.68
record_sequence=FQGSMRIFTKTLPHPDLPAEEKEQ measured_quantity="protein stability index" quantitative_readout=1.96
record_sequence=FQGSMRIFTKKLWHPDLPAEEKEQ measured_quantity="protein stability index" quantitative_readout=3.08
record_sequence=FQGSMRIFTKKLPHPDLPAEEKEK measured_quantity="protein stability index" quantitative_readout=2.37
record_sequence=FQGSMRIFTKKLPHPDLPAEEDEQ measured_quantity="protein stability index" quantitative_readout=2.08
record_sequence=FQGSMNIFTKKLPHPDLPAEEKEQ measured_quantity="protein stability index" quantitative_readout=1.3
record_sequence=FQGSMRIFTKKLPHPDLPAEEHEQ measured_quantity="protein stability index" quantitative_readout=1.22
record_sequence=FQGSMRIFTKKLPHCDLPAEEKEQ measured_quantity="protein stability index" quantitative_readout=1.64
record_sequence=FQGSMRIFTQKLPHPDLPAEEKEQ measured_quantity="protein stability index" quantitative_readout=1.84
record_sequence=FQGSMRIFTKKLPKPDLPAEEKEQ measured_quantity="protein stability index" quantitative_readout=1.77
record_sequence=FQGSMRIFTKKLPHPDLPAREKEQ measured_quantity="protein stability index" quantitative_readout=1.95
record_sequence=FQGSMRIFTYKLPHPDLPAEEKEQ measured_quantity="protein stability index" quantitative_readout=1.94
record_sequence=FQMSMRIFTKKLPHPDLPAEEKEQ measured_quantity="protein stability index" quantitative_readout=2.67
record_sequence=FQGSMRIFTKKLPHPDDPAEEKEQ measured_quantity="protein stability index" quantitative_readout=2.32
record_sequence=FQGSMRIFTKKLKHPDLPAEEKEQ measured_quantity="protein stability index" quantitative_readout=2.15
record_sequence=FQGSMTIFTKKLPHPDLPAEEKEQ measured_quantity="protein stability index" quantitative_readout=2.01
record_sequence=FQGSMRIFTKKLPHPDLPYEEKEQ measured_quantity="protein stability index" quantitative_readout=1.34
record_sequence=FQGSMRLFTKKLPHPDLPAEEKEQ measured_quantity="protein stability index" quantitative_readout=1.84
record_sequence=FQGSMRTFTKKLPHPDLPAEEKEQ measured_quantity="protein stability index" quantitative_readout=3.01
record_sequence=FQGSMRIFTKKLPHADLPAEEKEQ measured_quantity="protein stability index" quantitative_readout=1.92
record_sequence=FQGSMRIFTKHLPHPDLPAEEKEQ measured_quantity="protein stability index" quantitative_readout=1.57
record_sequence=FQGSMRIFTKKLPGPDLPAEEKEQ measured_quantity="protein stability index" quantitative_readout=1.77
record_sequence=FQGSMRIFTKKLPHPDLPIEEKEQ measured_quantity="protein stability index" quantitative_readout=1.53
record_sequence=FQGSMRIFTKKLPHPDLPANEKEQ measured_quantity="protein stability index" quantitative_readout=1.51
record_sequence=FQGSMRIFTKKLPHPCLPAEEKEQ measured_quantity="protein stability index" quantitative_readout=1.54
record_sequence=FQGSMRIFTKKLPHPDCPAEEKEQ measured_quantity="protein stability index" quantitative_readout=2.33
record_sequence=FQGSMRIFTKKLPHPDLPAEEKDQ measured_quantity="protein stability index" quantitative_readout=2.16
record_sequence=FQGSMRIFTKKLPHQDLPAEEKEQ measured_quantity="protein stability index" quantitative_readout=1.74
record_sequence=FQGSMRIFTKKLPHPDHPAEEKEQ measured_quantity="protein stability index" quantitative_readout=1.92
record_sequence=FQGSMRIFTKKLPHPDLPAEEKCQ measured_quantity="protein stability index" quantitative_readout=1.79
record_sequence=FQGSMRIFTKKLPHHDLPAEEKEQ measured_quantity="protein stability index" quantitative_readout=2.15
record_sequence=FQGSMRIFTKKLPHPDLMAEEKEQ measured_quantity="protein stability index" quantitative_readout=2.06
record_sequence=FQGSMRIFDKKLPHPDLPAEEKEQ measured_quantity="protein stability index" quantitative_readout=2.73
record_sequence=FQGSMAIFTKKLPHPDLPAEEKEQ measured_quantity="protein stability index" quantitative_readout=1.92
record_sequence=VQGSMRIFTKKLPHPDLPAEEKEQ measured_quantity="protein stability index" quantitative_readout=4.52
record_sequence=FQGSMRIFTKKLPHPDLPAWEKEQ measured_quantity="protein stability index" quantitative_readout=2.38
record_sequence=FQGRMRIFTKKLPHPDLPAEEKEQ measured_quantity="protein stability index" quantitative_readout=2.46
record_sequence=FQGSMRIFTKKLPHPVLPAEEKEQ measured_quantity="protein stability index" quantitative_readout=1.99
record_sequence=FQGSMRIFTKFLPHPDLPAEEKEQ measured_quantity="protein stability index" quantitative_readout=1.7
record_sequence=FQGSMRIFTLKLPHPDLPAEEKEQ measured_quantity="protein stability index" quantitative_readout=2.53
